Hello, the source for this data is patent US20170306031A1, in case you need it.

Molecular target: T1, mouse GFRAL (analyte in Biacore assays) (mouse, UniProt Q6SJE0 20-349, limits assumed)
T1 construct: injected in solution over captured antibody
T1 sequence: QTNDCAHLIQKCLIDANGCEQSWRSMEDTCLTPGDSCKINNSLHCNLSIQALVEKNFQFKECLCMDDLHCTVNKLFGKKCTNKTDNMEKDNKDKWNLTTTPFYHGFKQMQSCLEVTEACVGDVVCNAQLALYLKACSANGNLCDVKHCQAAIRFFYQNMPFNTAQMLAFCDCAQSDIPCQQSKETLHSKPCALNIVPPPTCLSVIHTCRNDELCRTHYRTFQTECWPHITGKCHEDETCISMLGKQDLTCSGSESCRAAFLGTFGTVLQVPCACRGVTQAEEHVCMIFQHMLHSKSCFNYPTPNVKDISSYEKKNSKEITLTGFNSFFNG
Test: Biacore SPR, antibody captured, GFRAL injected
RESULT TYPE: pKd
Quick note: pKd values are minus log10 of concentrations in mol/L.

Worked examples follow.
antibody designated 19K19 (antibody, V domains shown, mouse hybridoma monoclonal) VH: QVQLQQSGPDLVKPGASVKISCKASGYAFTSYWMNWVKQRPGKGLEWIGRIYPGDGDTNYNGKFKGKATLTADKSSSTAYMQLSSLTSEDSAVYFCARAYLLRLRRTGYYAMDYWGQGTSVTVSS VL: DVVLTQTPLSLPVNIGDQASISCKSTKSLLNSDEFTYLDWYLQKPGQSPQLLIYLVSNRFSGVPDRFSGSGSGTDFTLKISRVEAEDLGVYYCFQSNYLPYTFGGGTKLEIK | 8.33
antibody designated 2B8 (antibody, V domains shown, mouse hybridoma monoclonal) VH: QIQLVQSGPELKKPGETVKISCKASGYTFTTYGMSWVKQAPGKIFKWMGWINTYSGVPTFVDDFRGRFAFSLETSASTAYLQIGNLKNEDTATYFCARRSSYYPYWYFDVWGTGTTVTVSS VL: DIQMTQSPASLSASVGETVTITCRPSENIYSYLTWFQQEQGKSPQLLVYNAQTLAEGVPSRFSGSGSGTHFSLKINSLQPEDFGTYYCQHYYGYPFTFGSGTKLEIK | 8.42

Attention now turns to another entry.
# pKd (binder: antibody designated 1C1 (antibody, V domains shown, mouse hybridoma monoclonal) VH: QMQLKQSGPGLVQPSQSLSITCTVSGFSLNDYGVHWIRQSPGKGLEWLGVIWSGGRTDYNAAFISRLSISKDNSKSQVFFKMSSLQPQDTAIYYCARWALYFLYGGSMDYWGQGTSVTVSS VL: DVVLTQTPLSLPVSPGDQASISCRSSQSLVHSSGITYLHWYLQKPGQSPKLLIYKLSNRFSGVPDRFSGSGSGTDFTLKISRVEAEDLGVYFCSQSTHVPPWTFGGGTKLEIK ) is 8.43
